# target-desc: T1, cyBCMA (cynomolgus, UniProt A0A2K5UD97 1-53)
# T1 construct: Soluble analyte in SPR; construct not described; also called cyno BCMA
# T1 sequence (A0A2K5UD97 entry or part of it): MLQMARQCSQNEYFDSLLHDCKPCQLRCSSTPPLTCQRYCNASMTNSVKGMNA
# experiment-summary: SPR, immobilised IgG, 25° C
Assignment: determine reported T½ for the given binders.
Numeric only. Scale: min

L1.GDF/L3.NY/H3.AP (antibody, V domains shown, IgG in the assay) VH: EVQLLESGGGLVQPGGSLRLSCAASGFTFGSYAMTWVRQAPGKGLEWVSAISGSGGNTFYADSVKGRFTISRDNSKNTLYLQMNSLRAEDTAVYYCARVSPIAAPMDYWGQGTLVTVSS VL: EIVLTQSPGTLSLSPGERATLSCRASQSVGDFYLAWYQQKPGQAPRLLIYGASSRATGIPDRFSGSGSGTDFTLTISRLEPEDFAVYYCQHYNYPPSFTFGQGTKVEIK has a reported T½ of 1.6

The recorded T½ for entry L1.LGF/L3.NY/H3.AQ (antibody, V domains shown, IgG in the assay) VH: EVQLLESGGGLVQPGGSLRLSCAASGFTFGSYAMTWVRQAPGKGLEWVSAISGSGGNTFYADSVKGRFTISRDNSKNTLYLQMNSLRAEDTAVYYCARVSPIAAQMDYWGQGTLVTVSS VL: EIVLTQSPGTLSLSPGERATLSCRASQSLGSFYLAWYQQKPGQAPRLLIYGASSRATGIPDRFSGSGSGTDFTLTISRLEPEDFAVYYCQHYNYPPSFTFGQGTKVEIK equals 7.8

Consider L1.GDF/L3.NY/H3.AQ (antibody, V domains shown, IgG in the assay) VH: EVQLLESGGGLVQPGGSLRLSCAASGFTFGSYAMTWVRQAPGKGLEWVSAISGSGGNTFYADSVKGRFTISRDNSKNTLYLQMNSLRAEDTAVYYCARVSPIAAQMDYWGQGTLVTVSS VL: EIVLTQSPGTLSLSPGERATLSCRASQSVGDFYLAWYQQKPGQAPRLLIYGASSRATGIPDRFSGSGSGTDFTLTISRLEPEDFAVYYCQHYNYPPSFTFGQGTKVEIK . Its measured T½ is 8.5

The measured T½ associated with L1.LGF/L3.NY/H3.AP (antibody, V domains shown, IgG in the assay) VH: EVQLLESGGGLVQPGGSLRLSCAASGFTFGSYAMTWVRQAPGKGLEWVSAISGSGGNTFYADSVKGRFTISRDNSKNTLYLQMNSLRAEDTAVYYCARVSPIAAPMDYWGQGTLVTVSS VL: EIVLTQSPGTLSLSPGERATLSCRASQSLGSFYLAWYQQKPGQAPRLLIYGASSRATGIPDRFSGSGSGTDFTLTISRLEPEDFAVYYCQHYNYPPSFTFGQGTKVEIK reads 2.1

Short answer for L1.GDF/L3.NY/H3.AL (antibody, V domains shown, IgG in the assay) VH: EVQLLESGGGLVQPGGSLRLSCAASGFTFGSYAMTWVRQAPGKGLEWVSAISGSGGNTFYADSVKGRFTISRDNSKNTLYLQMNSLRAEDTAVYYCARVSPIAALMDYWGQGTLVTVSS VL: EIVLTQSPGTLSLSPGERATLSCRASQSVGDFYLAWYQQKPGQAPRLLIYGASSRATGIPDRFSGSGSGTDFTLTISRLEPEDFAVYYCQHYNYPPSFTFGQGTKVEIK : T½ was 0.5
